The entries below come with measured growth values attached.
Tested on: HCC-2998 colon
Assay method text: NCI-60 one-dose screen, 48 h (100 = growth as untreated, 0 = no growth, -100 = all killed)
Reported conditions: 10 µM unless noted
The panel holds about 83,000 compounds, 20% with a hit somewhere; the sample as a whole holds those more often.
Write down the numeric answer in % and omit the unit.

Compound: CC1=C(C#N)C2=NNCC(c3ccccc3)=NN2C(c2ccccc2)=C1
System name: HCC-2998 colon
Metric name: growth
Reading: 118
//
Compound: COc1cc2c(c(OC)c1OC)C(=O)CC(c1cccc(NC(=O)c3cc(NC(=O)[C@H](C)N)ccc3Cl)c1)O2 (some centres undefined)
System name: HCC-2998 colon
Metric name: growth
Reading: 81

Q) Indicate its recorded growth; the compound in question is "COc1ccc(/C=C/c2nc3ccccc3c(=O)n2CC(=O)Nc2ccc(Cl)cc2)cc1"
A) 116

Q) Entry "CCN(CC)c1ccc(/C=N/Nc2nc(-c3ccc(Br)cc3)cs2)c(O)c1" needs its growth filled in; supply it.
A) 100

Q) Determine its reported growth: "COC1=C[C@]23CCC(=O)N2CCc2cc4c(cc2[C@@H]3[C@@H]1OC(=O)[C@H](C)O)OCO4"
A) -29.9

---

System: COLO 205 colon
Assay method text: NCI-60 one-dose screen, 48 h
Reported conditions: 10 µM unless noted
This is part of a sample that, as a whole, favours compounds with a hit. Of some 83,000 tested, about 20% had one in any assay. Active and inactive are the calls of the source. How the source made its calls: active means growth percent below 10; inactive means the rest.
Would you mind answering with one of these outcomes? active, inactive

Molecule: Cc1cccc(NC(=O)CN2CCN(c3ncnc4c3cnn4-c3ccccc3)CC2)c1
Cat: inactive
--
Molecule: COc1ccc(-c2ccnc(SCc3cc4ccccc4[nH]c3=O)n2)cc1OC
Cat: active
--
Molecule: CCOP(=O)(OCCCl)c1nc(-c2ccc(C)cc2)oc1NCc1ccccc1 (stereo not given)
Cat: inactive
--
Molecule: COC1=C[C@]23CCC(=O)N2CCc2cc4c(cc2[C@@H]3[C@@H]1OC(=O)[C@H](C)O)OCO4
Cat: inactive

Next molecule, please.
Q) Each molecule tested received a call. Report the one for "N=C1N=C(SCc2nc3ccccc3[nH]2)NC(=O)/C1=C/c1ccc(Cl)cc1" .
A) inactive

---

Tested on: NCI/ADR-RES ovarian
Assay method text: NCI-60 one-dose screen, 48 h (100 = growth as untreated, 0 = no growth, -100 = all killed)
Reported conditions: 10 µM unless noted
The panel holds about 83,000 compounds, 20% with a hit somewhere; the sample as a whole holds those more often.
Metric name: growth (%)
Respond with the bare value in %.

Some solved entries appear below for comparison.
Smiles code: CC(C)c1sc(NC(=O)c2cc(NC(=O)c3cc(NC(=O)c4cscn4)cn3C)cn2C)nc1C(=O)NCCCN(C)C
growth [%]: 103

Smiles code: O=C(COc1ccc(NC(=O)Nc2ccc(Cl)c(Cl)c2)cc1)N=Nc1c(O)[nH]c2ccc(Br)cc12
growth [%]: 82.4

Smiles code: COc1cc(CNC(=O)/C=C/c2ccc3c(c2)OCO3)ccc1OCc1cn(-c2cccc(C(F)(F)F)c2)nn1
growth [%]: 4.67

Q) Write down measured growth (NCI/ADR-RES ovarian) for this molecule. "N#Cc1c(-c2ccc(Cl)cc2)nc2n[nH]c(-c3ccc(Cl)cc3)c2c1-c1cccs1"
A) 61.1

---

Test system: HOP-62 NSCLC
Assay method text: NCI-60 one-dose screen, 48 h
Reported conditions: 10 µM unless noted
About 83,000 compounds went through this panel and 20% of them were active in at least one assay; those are over-represented in the sample as a whole. Calls of active or inactive are those of the source. How the source made its calls: active means growth percent below 10; inactive means the rest.
Thanks in advance; please answer with one of these: True = active, False = inactive

Examples with answers:
Compound: N#Cc1c(-c2ccc(Cl)cc2)nc2n[nH]c(-c3ccc(Cl)cc3)c2c1-c1cccs1
System name: HOP-62 NSCLC
Cat: False

Compound: CC(=O)Nc1ccc(-n2cnc3ccc(-c4ccc(O)cc4)cc32)cc1
System name: HOP-62 NSCLC
Cat: False

Compound: Cc1ccc(C(=O)NN2C(=O)/C(=C/C=C/c3ccc([N+](=O)[O-])o3)SC2=S)cc1
System name: HOP-62 NSCLC
Cat: True

Compound: O=C(CCN1C(=O)/C(=C/c2ccc(F)cc2)SC1=S)N1CCOCC1
System name: HOP-62 NSCLC
Cat: False

Compound: Cc1ccc(NCC(=O)Cn2cc(COc3ccc(C=Nc4cnc5ccccc5c4)cc3)nn2)cc1
System name: HOP-62 NSCLC
Cat: False

Compound: Cc1ccc(NC(=O)[C@]23CCC(C)(C)CC2C2=CCC4[C@@]5(C)C[C@@H](O)[C@H](O)[C@@](C)(CO)C5CC[C@@]4(C)[C@]2(C)CC3)cc1 (some centres not stated)
System name: HOP-62 NSCLC
Cat: False

Q) Fill in: this test's call for CCOC(=O)C1=C(N)N(c2ccccc2)C2=C(C(=O)CC(C)(C)C2)C1c1cccc(Cl)c1Cl (configuration not stated) is ___
A) False

Q) Look up the recorded call for "Nc1nc(-c2ccccc2)c(N=Nc2ccc([N+](=O)[O-])cc2Cl)s1" in this test.
A) False

Q) Assay result, entry "O=C1N/C(=N\c2nccs2)S/C1=C\C=C/c1ccccc1" — outcome?
A) False

Q) I would be grateful if you could indicate the recorded call for "Cn1cc(-c2nnc(N)nc2-c2c[nH]c3ccc(F)cc23)c2cccnc21" .
A) False

Q) Test call for this compound, please: "CCC(C)(C)c1ccc(OCCCCN2CCN(c3ccncc3)CC2)cc1"
A) False

Q) Given "COc1cc(-c2nc3ccc(C)cc3[nH]2)ccc1OCc1nnc(-c2ccc(Br)cc2)o1" , state the outcome it received in this test.
A) False

---

Test system: NCI-H522 lung
Assay method text: NCI-60 one-dose screen, 48 h (100 = growth as untreated, 0 = no growth, -100 = all killed)
Reported conditions: 10 µM unless noted
This is part of a sample that, as a whole, favours compounds with a hit. Of some 83,000 tested, about 20% had one in any assay.
Classes based on growth: c1 = under 50%, c2 = from 50% up to 60%, c3 = 60% and over

Q) Consider CC12CC[C@@H]3[C@]4(C)COC(c5c(F)cccc5F)O[C@@H]4CC[C@@]3(C)[C@@H]1CC(C1=CCOC1=O)O2 (stereo not given in full) . To which growth class does it belong?
A) c2

Q) Band assignment needed for "CN(C)c1nc(NCCNS(=O)(=O)c2ccc(C(=O)/C=C/c3ccc(F)cc3)cc2)nc(Nc2ccc(F)cc2)n1" please.
A) c1

Q) Entry "CCN1C(=O)/C(=N\N=C(/C)c2ccc3c(c2)Nc2ccccc2S3)c2cc(Cl)ccc21" belongs to which category?
A) c2

Q) Which growth band matches "C#CCOc1ccc(/C=N/Nc2nc(-c3cc4cc(OC)ccc4oc3=O)cs2)cc1OC" ?
A) c1

Q) Category of "Nc1nc(C(F)(F)F)cs1" :
A) c3

Q) Quick check: band for "CC(=O)Nc1ccc(-n2cnc3ccc(-c4ccc(O)cc4)cc32)cc1"
A) c2

Q) Bin? "CC(=O)NNc1ccc2nnc(-c3ccccc3)n2n1"
A) c3

Q) Please let me know in which category the item "O=C(NN1C(=O)/C(=C/C=C/c2ccc([N+](=O)[O-])o2)SC1=S)c1cccc(O)c1" belongs.
A) c1

Q) Exam item: assign "O=C(N1c2ccccc2Sc2ccccc21)n1ccc2cccnc21" to the correct category.
A) c2

---

Tested on: NCI/ADR-RES ovarian
Assay method text: NCI-60 one-dose screen, 48 h
Reported conditions: 10 µM unless noted
Compounds without any hit were thinned out: in the full panel of roughly 83,000, 20% have a hit. Active and inactive are the calls of the source. How the source made its calls: active means growth percent below 10; inactive means the rest.
Log the outcome using a class from true (1) = active, false (0) = inactive

Sample answers from the record:
Smiles code: C#C[C@]1(O)CC[C@H]2[C@@H]3CC=C4c5sc(-c6ccc(O)c(O)c6)nc5CC[C@]4(C)[C@H]3CC[C@@]21C
Cat: true (1)
//
Smiles code: O=C(Nc1ccccc1)N1CCN(c2cc(-c3cn(-c4ccccc4)nc3-c3cccc(O)c3)ccn2)CC1
Cat: false (0)
//
Smiles code: O=C(CN1C(=O)/C(=C/c2ccccc2Cl)SC1=S)N1CCOCC1
Cat: false (0)
//
Smiles code: COc1ccc(NC(=O)Cn2c(O)c(N=Nc3ccc(S(N)(=O)=O)cc3)c3ccccc32)cc1
Cat: false (0)

Now, please, on to the next compound.
Q) What outcome does the record of this test show for "N#Cc1c(-c2cccc(Cl)c2Cl)cc(-c2c[nH]c3ccccc23)[nH]c1=O" ?
A) false (0)

---

// reported growth per item
System: NCI-H322M lung
Assay method text: NCI-60 one-dose screen, 48 h (100 = growth as untreated, 0 = no growth, -100 = all killed)
Reported conditions: 10 µM unless noted
This is part of a sample that, as a whole, favours compounds with a hit. Of some 83,000 tested, about 20% had one in any assay.
Could you give me the number in %? Just the number is fine.

Compound: COc1ccc(-c2ccc(SCC(=O)NCCc3ccc(S(N)(=O)=O)cc3)nn2)cc1
Unit symbol: %
growth: 96.2
--
Compound: O=C(/C=C/c1ccc(-c2ccccc2)cc1)c1nc2ccccc2n1Cc1ccc(Br)cc1
Unit symbol: %
growth: 72.4
--
Compound: COc1ccc(C(=O)/C=C/c2cccnc2)cc1S(N)(=O)=O
Unit symbol: %
growth: 52

Q) Entry COc1c(F)ccc(C(=O)Nc2ccc3nc(NC(=O)C4CCCN(S(=O)(=O)c5ccc(Cl)cc5)C4)sc3c2)c1F (stereo not given) needs its growth filled in; supply it.
A) 86.6

Q) Please look at this compound and report its growth: "COc1ccc(/C=C2\C(=O)Nc3ccc(Cl)cc32)cc1OCc1ccccn1"
A) 56

Q) Given "COc1cc(/C=C2\C(=N)N=C(SCc3nc4ccccc4[nH]3)NC2=O)ccc1O" , respond with its growth.
A) 103

Q) Please list growth recorded for the compound "CN(C)c1ccnc(NCCCSC(c2ccccc2)(c2ccccc2)c2ccccc2)c1"
A) 61.5

Q) Respond only with growth recorded for "S=C(NCCc1ccccc1)Nc1ccc(OCc2nc3ccccc3[nH]2)cc1"
A) 100

Q) For the compound "O=C(COc1ccc(NC(=O)Nc2ccc(Cl)cc2)cc1)N/N=C/c1ccccc1" , report growth.
A) -40.4

Q) Specify growth for O=C1CC(Sc2n[nH]c(-c3ccncc3)n2)C(=O)N1c1ccc(Br)cc1 (stereo not given) and stop.
A) 104
